From: patent US10981932B2

IC50 overview
- Test system: SUDHL5
- experiment description: Anti-proliferative effect (CellTiter-Glo, 72 h), SUDHL5
- Format: cell-based
- assay setup: Homo sapiens, SU-DHL-5, 72 h, SUDHL5 cells, antiproliferation, 72 h incubation, median, read-out: Antiproli SUDHL5 [M] (median)

compound | bound type | IC50, M
Cc1cc(OCCCc2c(C(=O)O)n3c4c(cccc24)-c2c(COc4ccccc4)nn(C)c2CN(C)CCC3)cc(C)c1Cl (single isomer, unassigned) [Example 1-85] | = | 2.5e-05
Cc1c2c(nn1C)COCCCCn1c(C(=O)O)c(CCCOc3cccc4ccccc34)c3cccc-2c31 (racemic) [Example 1-36] | = | 2.63e-06
CN1CCCn2c(C(=O)O)c(CCCOc3cccc4ccccc34)c3cccc(c32)-c2c(COc3ccccc3)nn(C)c2C1 (racemic) [Example 1-81] | > | 3.3e-05
Cn1nc(CC(F)(F)F)c2c1COCCCCn1c(C(=O)O)c(CCCOc3cccc4ccccc34)c3cccc-2c31 (single isomer, unassigned) [Example 220] | = | 1.05e-05
Cc1c2c(nn1CC(F)(F)F)COCCCCn1c(C(=O)O)c(CCCOc3cccc4ccccc34)c3cccc-2c31 [Example 241] | = | 9.89e-06
CC(C)c1c2c(nn1C)CN(C)CCCn1c(C(=O)O)c(CCCOc3cccc4ccccc34)c3cccc-2c31 (single isomer, unassigned; enantiomer 1) [Example 114] | = | 3.28e-06

====

- Tested on: SUDHL5
- experiment description: Anti-proliferative effect (CellTiter-Glo, 72 h), SUDHL5
- Format: cell-based
- assay setup: Homo sapiens, SU-DHL-5, 72 h, SUDHL5 cells, antiproliferation, 72 h incubation, median, read-out: Antiproli SUDHL5 [M] (median)
recorded endpoint: IC50 (M)

molecule | scale unit | bound type | numeric result
COCc1c2c(nn1C)COCCCCn1c(C(=O)O)c(CCCOc3cccc4c3CCCC4)c3cccc-2c31 (racemic) [Example 105] | M | = | 1.01e-05
Cc1ccc2c(CCCOc3cccc4ccccc34)c(C(=O)O)n3c2c1-c1c(C)nn(C)c1COCCCC3 (racemic) [Example 027] | M | = | 9.27e-06
Cn1nc(COc2ccc(N3CCN(S(C)(=O)=O)CC3)cc2)c2c1COCCCCn1c(C(=O)O)c(CCCOc3cccc4ccccc34)c3cccc-2c31 (racemic) [Example 1-8] | M | = | 9.83e-07
Cn1nc(COc2ccc(N3CCOCC3)cc2)c2c1COCC=CCn1c(C(=O)O)c(CCCOc3cccc4ccccc34)c3cccc-2c31 (single isomer, unassigned; enantiomer 1) [Example 119] | M | = | 1.35e-05
Cc1cc(OCCCc2c(C(=O)O)n3c4c(cccc24)-c2c(C)nn(C)c2COCCC3)cc(C)c1Cl (single isomer, unassigned; enantiomer 1) [Example 014] | M | = | 2.23e-05
COCCn1nc(C2CC2)c2c1COCCCCn1c(C(=O)O)c(CCCOc3cccc4c3CCCC4)c3cccc-2c31 (single isomer, unassigned; enantiomer 1) [Example 165] | M | = | 1.13e-05
CN1CCCn2c(C(=O)O)c(CCCOc3cccc4ccccc34)c3cccc(c32)-c2c(CCN3CCOCC3)nn(C)c2C1 (racemic) [Example 124] | M | = | 6.64e-06
Cc1c2c(nn1C)CN(C)CCCn1c(C(=O)O)c(CCCOc3cccc4ccccc34)c3cccc-2c31 (single isomer, unassigned; enantiomer 1) [Example 1-34] | M | = | 1.31e-05
COCc1nn(C)c2c1-c1cccc3c(CCCOc4cccc5ccccc45)c(C(=O)O)n(c13)CCCCCOC2 (racemic) [Example 177] | M | > | 3.3e-05
Cn1nc(CN2CCOCC2)c2c1COCC=CCn1c(C(=O)O)c(CCCOc3cccc4ccccc34)c3cccc-2c31 (racemic) [Example 132] | M | = | 1.78e-05
Cn1nc2c(c1C(F)(F)F)-c1cccc3c(CCCOc4cccc5ccccc45)c(C(=O)O)n(c13)CCCCOC2 (single isomer, unassigned; enantiomer 1) [Example 194] | M | = | 7.95e-06
CCc1nn(C)c2c1-c1c(C)ccc3c(CCCOc4cc(C)c(Cl)c(C)c4)c(C(=O)O)n(c13)CCCCOC2 (racemic) [Example 269] | M | = | 2.26e-06

====

- target of assay: MCL-1 (Homo sapiens, UniProt Q07820)
- Sequence (Q07820 whole entry): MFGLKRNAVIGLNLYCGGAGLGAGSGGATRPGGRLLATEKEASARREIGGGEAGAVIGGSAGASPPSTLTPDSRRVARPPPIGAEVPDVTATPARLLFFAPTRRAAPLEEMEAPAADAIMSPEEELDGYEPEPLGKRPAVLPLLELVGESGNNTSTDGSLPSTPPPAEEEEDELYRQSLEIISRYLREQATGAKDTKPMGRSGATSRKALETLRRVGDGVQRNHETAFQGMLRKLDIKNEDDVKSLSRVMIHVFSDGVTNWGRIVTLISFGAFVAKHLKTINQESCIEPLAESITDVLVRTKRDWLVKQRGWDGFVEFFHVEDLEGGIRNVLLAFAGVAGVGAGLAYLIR
- experiment description: Protein-protein interaction assay MCL-1/Noxa BH3 peptide (MCL-1 assay), TR-FRET
- Assay type: binding
- assay setup: MBP-MCL-1 / Noxa BH3-derived peptide, median
log10(IC50) overview
recorded endpoint: log10(IC50) (log10 of the value in nM)

compound | log10(IC50)
COc1c2c(nn1C)COCCCCn1c(C(=O)O)c(CCCOc3cccc4ccccc34)c3cccc-2c31 (single isomer, unassigned) [Example 208] | 0.57
Cn1nc(CN2CCOCC2)c2c1COCC=CCn1c(C(=O)O)c(CCCOc3cccc4ccccc34)c3cccc-2c31 (single isomer, unassigned; enantiomer 2) [Example 134] | 2.51
Cn1nc(CN2CCOCC2)c2c1COCCCCn1c(C(=O)O)c(CCCOc3cccc4ccccc34)c3cccc-2c31 (racemic) [Example 135] | 1.17
Cc1ccc2c(OCCCc3c(C(=O)O)n4c5c(cccc35)-c3c(nn(C)c3C)COCCCC4)cccc2c1 (racemic) [Example 307] | 1.11
CCc1c2c(nn1CCN1CCOCC1)COCCCCn1c(C(=O)O)c(CCCOc3cccc4ccccc34)c3cccc-2c31 (racemic) [Example 201] | 0.63
Cn1nc(CN2CCCC2=O)c2c1COCCCCn1c(C(=O)O)c(CCCOc3cccc4ccccc34)c3cccc-2c31 (single isomer, unassigned; enantiomer 1) [Example 330] | 2.18
Cn1nc(COc2ccc(N3CCN(C(=O)C4CC4)CC3)cc2)c2c1COCCCCn1c(C(=O)O)c(CCCOc3cccc4ccccc34)c3cccc-2c31 (single isomer, unassigned; enantiomer 2) [Example 1-23] | 1.51
COCc1nn(C)c2c1-c1cccc3c(CCCOc4cccc5ccccc45)c(C(=O)O)n(c13)CCCCOC2 (single isomer, unassigned; enantiomer 1) [Example 159] | 1.38
Cn1nc(COc2ccc(C3(O)CCOCC3)cc2)c2c1COCCCCn1c(C(=O)O)c(CCCOc3cccc4ccccc34)c3cccc-2c31 (racemic) | 0.47
Cc1nn(C)c2c1-c1cccc3c(CCCOc4cccc5c4CCCC5)c(C(=O)O)n(c13)CCCCOC2 (single isomer, unassigned; enantiomer 1) [Example 007] | -0.01
Cn1nc(COC2CC2)c2c1COCCCCn1c(C(=O)O)c(CCCOc3cccc4ccccc34)c3cccc-2c31 (single isomer, unassigned) [Example 215] | 2.26
Cc1ccc2c(C(C)CCOc3cccc4cc(F)ccc34)c(C(=O)O)n3c2c1-c1c(nn(C)c1C)COCCCC3 (single isomer, unassigned) [Example 279] | 3.20
Cc1c2c(nn1C)COCCCCn1c(C(=O)O)c(CCc3cccc4ccccc34)c3cccc-2c31 (racemic) | 2.47
Cn1nc(COc2ccccc2)c2c1COCCCCn1c(C(=O)O)c(CCCOc3cccc4ccccc34)c3cccc-2c31 (single isomer, unassigned) [Example 1-80] | 1.70
COc1c2c(nn1C)COCCCCn1c(C(=O)O)c(CCCOc3cccc4ccccc34)c3cccc-2c31 (racemic) [Example 207] | 0.83
CCc1nn(C)c2c1-c1cccc3c(CCCOc4cccc5cc(Cl)ccc45)c(C(=O)O)n(c13)CCCCOC2 (racemic) [Example 304] | 1.02
CCc1c2c(nn1C)CN(C)CCCn1c(C(=O)O)c(CCCOc3cccc4ccccc34)c3ccc(C)c-2c31 (single isomer, unassigned; enantiomer 2) [Example 146] | 0.95
CCc1nn(C)c2c1-c1c(C)ccc3c(C(C)CCOc4cccc5cc(F)ccc45)c(C(=O)O)n(c13)CCCCOC2 (single isomer, unassigned) [Example 264] | 2.12
Cc1cc(OCCCc2c(C(=O)O)n3c4c(cccc24)-c2c(C)nn(C)c2COCCC3)cc(C)c1Cl (single isomer, unassigned; enantiomer 2) [Example 015] | 0.98
CCc1nn(C)c2c1-c1c(C)ccc3c(CCCOc4cccc5cc(F)ccc45)c(C(=O)O)n(c13)CCCCOC2 (racemic) [Example 266] | 0.41
COCc1c2c(nn1C)COCCCCn1c(C(=O)O)c(CCCOc3cccc4c3CCCC4)c3cccc-2c31 (racemic) | 0.43
Cn1nc(COc2ccccc2)c2c1COCC=CCn1c(C(=O)O)c(CCCOc3cccc4ccccc34)c3cccc-2c31 (single isomer, unassigned) [Example 1-77] | 2.27
Cn1nc(CN2CCCC2=O)c2c1COCCCCn1c(C(=O)O)c(CCCOc3cccc4ccccc34)c3cccc-2c31 (racemic) [Example 328] | 1.67

====

IC50 overview
- Tested on: MV-4-11
- experiment description: Anti-proliferative effect (CellTiter-Glo, 72 h), MV-4-11
- Type: cell-based
- assay setup: MV-4-11 cells, median, read-out: IC50 antiproliferation assay MV-4-11 [M] (median)

compound | scale unit | IC50
Cn1nc(COc2ccc(N3CCN(S(=O)(=O)C4CC4)CC3)cc2)c2c1COCCCCn1c(C(=O)O)c(CCCOc3cccc4ccccc34)c3cccc-2c31 (single isomer, unassigned; enantiomer 1) [Example 1-12] | M | 6.78e-06
CCc1nn(C)c2c1-c1c(C)ccc3c(CCCOc4cccc5cc(F)ccc45)c(C(=O)O)n(c13)CCCCOC2 (single isomer, unassigned) | M | 7.46e-06
CCc1c2c(nn1C)COCCCCn1c(C(=O)O)c(CCCOc3cccc4cc(F)ccc34)c3cccc-2c31 (single isomer, unassigned) [Example 282] | M | 3.69e-06
CCc1nn(C)c2c1-c1cccc3c(CCCOc4cccc5cc(C(F)(F)F)ccc45)c(C(=O)O)n(c13)CCCCOC2 (single isomer, unassigned; enantiomer 2) [Example 315] | M | 1.16e-05
CN1CCCn2c(C(=O)O)c(CCCOc3cccc4ccccc34)c3cccc(c32)-c2c(COc3ccc(S(C)(=O)=O)cc3)nn(C)c2C1 (single isomer, unassigned) | M | 1.05e-05
Cn1nc(C(F)(F)F)c2c1COCCCCn1c(C(=O)O)c(CCCOc3cccc4ccccc34)c3cccc-2c31 (single isomer, unassigned) [Example 217] | M | 1.52e-05
COc1ccc2c(CCCOc3cccc4ccccc34)c(C(=O)O)n3c2c1-c1c(nn(C)c1C)COCCCC3 (single isomer, unassigned; enantiomer 1) [Example 350] | M | 1.53e-05
Cn1nc(COc2ccc(N3CCOCC3)cc2)c2c1COCC=CCn1c(C(=O)O)c(CCCOc3cccc4ccccc34)c3cccc-2c31 (single isomer, unassigned; enantiomer 2) | M | 1.13e-05
Cc1ccc2c(CCCOc3cccc4cc(F)ccc34)c(C(=O)O)n3c2c1-c1c(nn(CCN2CCOCC2)c1C)COCCCC3 (single isomer, unassigned) [Example 294] | M | 1.53e-05
CCc1nn(C)c2c1-c1cccc3c(CCCOc4cccc5cc(F)ccc45)c(C(=O)O)n(c13)CCCCOC2 (single isomer, unassigned) | M | 1.89e-05
Cn1nc2c(c1OC(F)F)-c1cccc3c(CCCOc4cccc5ccccc45)c(C(=O)O)n(c13)CCCCOC2 (single isomer, unassigned) | M | 2.19e-05
